Tested on: Red blood cells (RBC)
Procedure Summary: Red blood cell toxicity
Type: cell-based
Where no end group is shown, it is not given here.
Assay Endpoint: % kill at 250 μg/ml

>  <Substance>
LRLRLRLRLRLRLRLRLRLRLR [LR (11), LR LR LR LR LR LR LR LR LR LR LR]

>  <Assay Endpoint>
% kill at 250 μg/ml

>  <Reported Value>
41%

$$$$
>  <Substance>
H-FKAFKAFKAFKAFKAFKAFKAFKAFKAFKA-OH [FKA (10), FKA FKA FKA FKA FKA FKA FKA FKA FKA FKA]

>  <Assay Endpoint>
% kill at 250 μg/ml

>  <Reported Value>
51%

$$$$
>  <Substance>
H-KFAKKFAKKFAKKFAKKFAKKFAK-OH [KFAK (6), KFAK KFAK KFAK KFAK KFAK KFAK]

>  <Assay Endpoint>
% kill at 250 μg/ml

>  <Reported Value>
7.3%

$$$$
>  <Substance>
LKLKLKLKLKLKLKLKLK [LK (9), LK LK LK LK LK LK LK LK LK]

>  <Assay Endpoint>
% kill at 250 μg/ml

>  <Reported Value>
21%

$$$$
>  <Substance>
H-KFKKFKKFKKFKKFKKFKKFKKFK-OH [KFK (8), KEK KFK KFK KFK KFK KFK KFK KFK]

>  <Assay Endpoint>
% kill at 250 μg/ml

>  <Reported Value>
−6%

$$$$

====

System: Red blood cells (RBC)
Procedure Summary: Red blood cell toxicity
Format: cell-based
Where no end group is shown, it is not given here.
Listing of recorded % kill at 250 μg/ml by entry.

>  <Substance>
H-FKAFKAFKAFKAFKAFKAFKAFKA-OH [FKA (8), FKA FKA FKA FKA FKA FKA FKA FKA]

>  <% kill at 250 μg/ml [%]>
10

$$$$
>  <Substance>
FKAFKAFKAFKAFKAFKAFKA [FKA (7), FKA FKA FKA FKA FKA FKA FKA]

>  <% kill at 250 μg/ml [%]>
11

$$$$
>  <Substance>
H-LKKLLKKLLKKLLKKLLKKLLKKLLKKL-OH [LKKL (7), LKKL LKKL LKKL LKKL LKKL LKKL LKKL]

>  <% kill at 250 μg/ml [%]>
100

$$$$
>  <Substance>
H-KFAKKFAKKFAKKFAKKFAKKFAKKFAKKFAK-OH [KFAK (8), KFAK KFAK KFAK KFAK KFAK KFAK KFAK KFAK]

>  <% kill at 250 μg/ml [%]>
48

$$$$
>  <Substance>
LKLKLKLKLKLKLKLKLKLK [LK (10), LK LK LK LK LK LK LK LK LK LK]

>  <% kill at 250 μg/ml [%]>
27

$$$$
>  <Substance>
KFAFKFAFKFAFKFAFKFAFKFAFKFAF [KFAF (7), KFAF KFAF KFAF KFAF KFAF KFAF KFAF]

>  <% kill at 250 μg/ml [%]>
4

$$$$
>  <Substance>
H-KKFAKKFAKKFAKKFAKKFAKKFA-OH [KKFA (6), KKFA KKFA KKFA KKFA KKFA KKFA]

>  <% kill at 250 μg/ml [%]>
2

$$$$
>  <Substance>
KAAKKAAKKAAKKAAKKAAKKAAKKAAK [KAAK (7), KAAK KAAK KAAK KAAK KAAK KAAK KAAK]

>  <% kill at 250 μg/ml [%]>
−6

$$$$

====

System: P. aeruginosa ATCC 15442
Procedure Summary: HMARQ biocidal kill activity
Format: cell-based
Measurement Context: P. aeruginosa ATCC 15442 (gram−), 15 min
Where no end group is shown, it is not given here.

>  <Substance>
H-LKKLLKKLLKKLLKKLLKKL-OH [LKKL (5), LKKL LKKL LKKL LKKL LKKL]

>  <Unit Info>
ppm

>  <Limit Operator>
>

>  <ppm needed for 3.5 log kill at 15 min>
500

$$$$
>  <Substance>
H-KFKKFKKFKKFKKFKKFKKFKKFKKFKKFK-OH [KFK (10), KFK KFK KFK KFK KFK KFK KEK KFK KFK KFK]

>  <Unit Info>
ppm

>  <Limit Operator>
=

>  <ppm needed for 3.5 log kill at 15 min>
8

$$$$
>  <Substance>
H-KKAKKKAKKKAKKKAKKKAKKKAKKKAK-OH [KKAK (7), KKAK KKAK KKAK KKAK KKAK KKAK KKAK]

>  <Unit Info>
ppm

>  <Limit Operator>
=

>  <ppm needed for 3.5 log kill at 15 min>
16

$$$$
>  <Substance>
H-LKKLLKKLLKKLLKKLLKKLLKKLLKKL-OH [LKKL (7), LKKL LKKL LKKL LKKL LKKL LKKL LKKL]

>  <Unit Info>
ppm

>  <Limit Operator>
=

>  <ppm needed for 3.5 log kill at 15 min>
125

$$$$
>  <Substance>
KFKKFKKFKKFKKFKKFKKFKKFKKFK [KFK (9), KFK KFK KFK KFK KFK KFK KFK KFK KFK]

>  <Unit Info>
ppm

>  <Limit Operator>
>

>  <ppm needed for 3.5 log kill at 15 min>
500

$$$$
>  <Substance>
H-LKLKLKLKLKLKLKLK-OH [LK (8), LK LK LK LK LK LK LK LK]

>  <Unit Info>
ppm

>  <Limit Operator>
=

>  <ppm needed for 3.5 log kill at 15 min>
8

$$$$
>  <Substance>
LRLRLRLRLRLRLR [LR (7), LR LR LR LR LR LR LR]

>  <Unit Info>
ppm

>  <Limit Operator>
>

>  <ppm needed for 3.5 log kill at 15 min>
63

$$$$
>  <Substance>
FKA FKA FKA FKA (FKAFKAFKAFKA; Periodic Peptide) [FKA(4)]

>  <Unit Info>
ppm

>  <Limit Operator>
>

>  <ppm needed for 3.5 log kill at 15 min>
500

$$$$

====

System: C. albicans 10231
Assay type: cell-based
Measurement Context: 10231
Protocol: The MIC and IC50 values were determined by a broth microdilution method according to guidelines of the National Committee for Clinical Laboratory Standard as follows: In 96-well tissue culture plates, a fixed volume of bacterial suspension in 2× broth (as defined below) was added to the mixtures or individual compounds dispensed at concentrations varying from 1,000 to 1 μg/ml derived from serial two-fold dilutions in sterile water. […]
Where no end group is shown, it is not given here.
Assay Endpoint: MIC

>  <Substance>
H-KKFAKKFAKKFAKKFAKKFAKKFA-OH [KKFA (6), KKFA KKFA KKFA KKFA KKFA KKFA]

>  <Tested On>
C. albicans 10231

>  <Assay Endpoint>
MIC

>  <Reported Value>
125 to 250 µg/mL

$$$$
>  <Substance>
H-FAKKFAKKFAKKFAKKFAKKFAKK-OH [FAKK (6), FAKK FAKK FAKK FAKK FAKK FAKK]

>  <Tested On>
C. albicans 10231

>  <Assay Endpoint>
MIC

>  <Reported Value>
125 to 250 µg/mL

$$$$
>  <Substance>
H-KFAKKFAKKFAKKFAKKFAKKFAK-OH [KFAK (6), KFAK KFAK KFAK KFAK KFAK KFAK]

>  <Tested On>
C. albicans 10231

>  <Assay Endpoint>
MIC

>  <Reported Value>
80 to 125 µg/mL

$$$$
>  <Substance>
LKKLLKKLLKKLLKKLLKKLLKKL [LKKL (6), LKKL LKKL LKKL LKKL LKKL LKKL]

>  <Tested On>
C. albicans 10231

>  <Assay Endpoint>
MIC

>  <Reported Value>
250 to 500 µg/mL

$$$$
>  <Substance>
LRLRLRLRLRLRLR [LR (7), LR LR LR LR LR LR LR]

>  <Tested On>
C. albicans 10231

>  <Assay Endpoint>
MIC

>  <Reported Value>
250 to 500 µg/mL

$$$$
>  <Substance>
LRLRLRLRLRLRLRLRLRLRLR [LR (11), LR LR LR LR LR LR LR LR LR LR LR]

>  <Tested On>
C. albicans 10231

>  <Assay Endpoint>
MIC

>  <Reported Value>
>500 µg/mL

$$$$
>  <Substance>
H-KFAKKFAKKFAKKFAKKFAKKFAKKFAKKFAK-OH [KFAK (8), KFAK KFAK KFAK KFAK KFAK KFAK KFAK KFAK]

>  <Tested On>
C. albicans 10231

>  <Assay Endpoint>
MIC

>  <Reported Value>
125 to 250 µg/mL

$$$$
>  <Substance>
LKLKLKLKLKLKLKLKLKLK [LK (10), LK LK LK LK LK LK LK LK LK LK]

>  <Tested On>
C. albicans 10231

>  <Assay Endpoint>
MIC

>  <Reported Value>
250 to 500 µg/mL

$$$$
>  <Substance>
H-FKAFKAFKAFKAFKAFKAFKAFKAFKA-OH [FKA (9), FKA FKA FKA FKA FKA FKA FKA FKA FKA]

>  <Tested On>
C. albicans 10231

>  <Assay Endpoint>
MIC

>  <Reported Value>
250 to 500 µg/mL

$$$$
>  <Substance>
LKLKLKLKLKLKLKLKLKLKLKLK [LK (12), LK LK LK LK LK LK LK LK LK LK LK LK]

>  <Tested On>
C. albicans 10231

>  <Assay Endpoint>
MIC

>  <Reported Value>
250 to 500 µg/mL

$$$$
>  <Substance>
H-FKAFKAFKAFKAFKAFKAFKAFKA-OH [FKA (8), FKA FKA FKA FKA FKA FKA FKA FKA]

>  <Tested On>
C. albicans 10231

>  <Assay Endpoint>
MIC

>  <Reported Value>
250 to 500 µg/mL

$$$$
>  <Substance>
FAKKFAKKFKKFAKKFAKFAFAF [D2A21, reference compound]

>  <Tested On>
C. albicans 10231

>  <Assay Endpoint>
MIC

>  <Reported Value>
>250 µg/mL

$$$$
>  <Substance>
H-LKLKLKLKLKLKLKLK-OH [LK (8), LK LK LK LK LK LK LK LK]

>  <Tested On>
C. albicans 10231

>  <Assay Endpoint>
MIC

>  <Reported Value>
250 to 500 µg/mL

$$$$
>  <Substance>
KFAKKFAKKFAKKFAKKFAKKFAKKFAK [KFAK (7), KFAK KFAK KFAK KFAK KFAK KFAK KFAK]

>  <Tested On>
C. albicans 10231

>  <Assay Endpoint>
MIC

>  <Reported Value>
100 to 125 µg/mL

$$$$
>  <Substance>
KFAFKFAFKFAFKFAFKFAFKFAFKFAF [KFAF (7), KFAF KFAF KFAF KFAF KFAF KFAF KFAF]

>  <Tested On>
C. albicans 10231

>  <Assay Endpoint>
MIC

>  <Reported Value>
>500 µg/mL

$$$$
>  <Substance>
H-KFKKFKKFKKFKKFKKFKKFKKFK-OH [KFK (8), KEK KFK KFK KFK KFK KFK KFK KFK]

>  <Tested On>
C. albicans 10231

>  <Assay Endpoint>
MIC

>  <Reported Value>
125 to 250 µg/mL

$$$$
>  <Substance>
KFKKFKKFKKFKKFKKFKKFK [KFK (7), KFK KFK KFK KFK KFK KFK KFK]

>  <Tested On>
C. albicans 10231

>  <Assay Endpoint>
MIC

>  <Reported Value>
250 to 500 µg/mL

$$$$
